Measured values drawn from patent US20230312686A1 for this set.

// huGPC3 koff (mut/par) lookup, one value per entry
system tested: T1, Recombinant human glypican-3 (aa 1-559), His-tagged, R&D Systems (human, UniProt P51654 25-559)
T1 construct: also called huGPC3; Hu GPC3-His
T1 sequence (P51654 other isoform, or with tags, fused parts or gaps): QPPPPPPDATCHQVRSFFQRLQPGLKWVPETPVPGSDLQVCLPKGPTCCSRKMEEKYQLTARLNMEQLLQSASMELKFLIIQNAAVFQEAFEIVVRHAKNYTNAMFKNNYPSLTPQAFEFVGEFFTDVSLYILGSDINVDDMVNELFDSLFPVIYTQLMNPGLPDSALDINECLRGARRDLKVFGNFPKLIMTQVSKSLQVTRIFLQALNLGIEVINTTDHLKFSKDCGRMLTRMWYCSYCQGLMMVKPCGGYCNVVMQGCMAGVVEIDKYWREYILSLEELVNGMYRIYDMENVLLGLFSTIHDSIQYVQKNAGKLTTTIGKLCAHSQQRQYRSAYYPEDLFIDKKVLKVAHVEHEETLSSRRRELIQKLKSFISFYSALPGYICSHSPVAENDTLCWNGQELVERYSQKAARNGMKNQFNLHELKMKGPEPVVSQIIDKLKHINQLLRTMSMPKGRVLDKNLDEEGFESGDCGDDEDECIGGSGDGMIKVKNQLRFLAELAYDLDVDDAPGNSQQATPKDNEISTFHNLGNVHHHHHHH
assay summary: SPR 1-point off-rate, alkylated mutant vs parent
Could you give me the number in fold? Just the number is fine.

The cases that follow already have their huGPC3 koff (mut/par) on record.
# binder, display unit, huGPC3 koff (mut/par)
records = [
    ("ADX_6077_F02 DG→EG mutant, alkylated (designed binder, C-terminal cysteine alkylated, also called P1-055673) GVSDVPRDLEVVAATPTSLLISWSDDYHAHRYYRITYGETGGNSPVQEFTVPGEHVTATISGLKPGVDYTITVYAVTYEGEKAATDWSISINYRTPC", "fold", 5.4),
    ("ADX_6077_F02 DG→SG mutant, alkylated (designed binder, C-terminal cysteine alkylated, also called P1-055668) VSDVPRDLEVVAATPTSLLISWSDDYHAHRYYRITYGETGGNSPVQEFTVPGEHVTATISGLKPGVDYTITVYAVTYSGEKAATDWSISINYRTPC", "fold", 5.2),
]

Would you kindly look at the next entry?
Record request: huGPC3 koff (mut/par) value, item ADX_6077_F02 DG→DA mutant, alkylated (designed binder, C-terminal cysteine alkylated, also called P1-055660; PI-055660) GVSDVPRDLEVVAATPTSLLISWSDDYHAHRYYRITYGETGGNSPVQEFTVPGEHVTATISGLKPGVDYTITVYAVTYDAEKAATDWSISINYRTPC
3.9
